Data provenance is PubChem BioAssay (NCI).

System: A498 renal
Test: NCI-60 one-dose screen, 48 h
Conditions: 10 µM unless noted
Description: Growth inhibition of the A498 human tumor cell line is measured as a screen for anti-cancer activity. Cells are grown in 96 well plates and exposed to the test compound for 48 hours. Compounds are tested at a single concentration, which is 10^-5 M for most compounds. The reported endpoint is percent growth (GI% or GIPRCNT), where numbers from 0 - 100% represent growth inhibition, and numbers from -100% - 0 represent cell death. For example, a value of 40 represents 60% growth inhibition. […]
Compounds without any hit were thinned out: in the full panel of roughly 83,000, 20% have a hit. Calls of active or inactive are those of the source. The calls were made as follows: active = growth percent below 10; inactive = the rest.
Possible outcomes: y (active), n (inactive)

{"COMPOUND": "CCN1C(=O)N(CC)C2C1NN=c1s/c(=C3\\C(=O)N(CCC(C)C)c4ccccc43)c(=O)n12 (stereo not given)", "DISCRETE_LABEL": "y"}
{"COMPOUND": "O=C1/C(=C/c2ccc(O)c(O)c2)COc2ccc(-c3ccccc3)cc21", "DISCRETE_LABEL": "n"}
{"COMPOUND": "CCOC(=O)c1ccccc1-c1c2ccc(=[N+](C)C)cc-2oc2cc(N(C)C)ccc12", "DISCRETE_LABEL": "y"}
{"COMPOUND": "O=S(=O)(NCCNc1nccc(-c2c(-c3cccc(O)c3)nc3occn23)n1)c1ccc(Br)cc1", "DISCRETE_LABEL": "n"}
{"COMPOUND": "CCCCCCCCCCCCCCCCCC1=NC(C)(C)CN1CC(C)O (stereo not given)", "DISCRETE_LABEL": "n"}
{"COMPOUND": "COc1cccc(CCNc2ncnc3c2ncn3Cc2nnc3c4ccccc4c(Cl)nn23)c1", "DISCRETE_LABEL": "n"}
{"COMPOUND": "Cc1ccc2nc(-c3ccc(C(=O)NNC(=S)Nc4ccccc4)cc3)[nH]c2c1", "DISCRETE_LABEL": "n"}
{"COMPOUND": "O=C1c2ccccc2C(=O)C1c1ccc(Br)cc1", "DISCRETE_LABEL": "n"}
{"COMPOUND": "O=C(Nc1ccccc1[N+](=O)[O-])c1ccc(Cl)c(Cl)c1", "DISCRETE_LABEL": "n"}
{"COMPOUND": "N#CC1CCc2c(c(-c3ccc4nc(N)sc4c3)nc3ccc4[nH]ncc4c23)C1 (stereo not given)", "DISCRETE_LABEL": "y"}
{"COMPOUND": "O=C1Nc2ccccc2C1(c1c[nH]c2ccccc12)c1c[nH]c2ccccc12", "DISCRETE_LABEL": "n"}
{"COMPOUND": "C=CN(C(=O)N1CCN(c2cc3c(cc2F)c(=O)c(C(=O)O)cn3C2CC2)CC1)c1nc(-c2ccc(OC)cc2)cs1", "DISCRETE_LABEL": "y"}
{"COMPOUND": "O=C1/C(=C/c2ccccc2F)CN(C(=O)C(Cl)Cl)C/C1=C\\c1ccccc1F", "DISCRETE_LABEL": "y"}
{"COMPOUND": "CNC(=O)c1cc(Oc2ccc3c(c2)sc2nc(-c4ccc(OC)cc4)cn23)ccn1", "DISCRETE_LABEL": "n"}
{"COMPOUND": "COc1ccc(/C=C(/C(=O)n2cnnn2)c2cc(OC)c(OC)c(OC)c2)cc1", "DISCRETE_LABEL": "y"}
{"COMPOUND": "CCCCCCCC/C=C\\CCCCCCCCOc1ccc(CC(=O)NCC[N+]2(C)CCOCC2)cc1", "DISCRETE_LABEL": "n"}
{"COMPOUND": "COC(=O)c1cc(Br)ccc1O", "DISCRETE_LABEL": "n"}
{"COMPOUND": "NC1=Nc2cc(OCCCCN3Cc4ccccc4C3)c(OCC3CC3)cc2C12CCCC2", "DISCRETE_LABEL": "y"}
{"COMPOUND": "Cc1ccc(-c2nc(/C=C3/C(=O)Nc4ccc(F)cc43)c3ccccn23)cc1", "DISCRETE_LABEL": "n"}
{"COMPOUND": "O=c1c2c3c(sc2n2c(-c4cc(-c5ccccc5)no4)nnc2n1Cc1ccccc1)CCCC3", "DISCRETE_LABEL": "n"}
